Just for reference, ChEMBL document CHEMBL5143628 is where these values come from.

List of pEC50 values.
Tested on: rhinovirus A16
Assay: Antiviral activity against Human rhinovirus 16 infected in human H1-HeLa cells assessed as reduction in virus induced cytopathic effect incubated for 3 days by MTT assay
Type: functional, organism-based
Conditions: Rhinovirus A, 72 h
pEC50: −log10 of the molar value.
READOUT KIND: pEC50

molecule="CCCn1c(=O)c2c3c(sc2n2cnnc12)CC(C(C)(C)C)CC3 (stereo in doubt)" endpoint_result=5.72
molecule=Cc1cc(CCCOc2c(C)cc(-c3noc(C(F)(F)F)n3)cc2C)on1 endpoint_result=6.29

* * *

Recorded EC50 by entry
System: rhinovirus A21
Assay: Antiviral activity against Human rhinovirus A21 infected in human H1-HeLa cells assessed as reduction in virus induced cytopathic effect incubated for 3 days by MTT assay
Format: functional, organism-based
Conditions: h1-hela
READOUT KIND: EC50 (µM)

molecule="CCCn1c(=O)c2c3c(sc2n2cnnc12)CC(C(C)(C)C)CC3 (stereo in doubt; 2c-2)" test_target="rhinovirus A21" readout_kind=EC50 endpoint_result=7.7
molecule="CCCn1c(=O)c2c3c(sc2n2cnnc12)CC(C(C)(C)C)CC3 (stereo in doubt; 2c-1)" test_target="rhinovirus A21" readout_kind=EC50 endpoint_result=3.5
molecule="CCCn1c(=O)c2c3c(sc2n2cnnc12)CC(C(C)(C)C)CC3 (stereo in doubt)" test_target="rhinovirus A21" readout_kind=EC50 endpoint_result=2

* * *

// reported selectivity ratio per item
Assay: Selectivity index, ratio of CC50 for cytotoxicity against human H1-HeLa cells to EC50 for antiviral activity against Human rhinovirus B14 infected in human H1-HeLa cells
Assay type: toxicity, cell-based
Details: H1-HeLa cells, read-out: Ratio CC50/EC50
READOUT KIND: selectivity ratio

compound=Cc1cc(CCCOc2c(C)cc(-c3noc(C(F)(F)F)n3)cc2C)on1 readout_kind="selectivity ratio" comparison_operator== endpoint_result=145
compound="CCn1c(=O)c2c3c(sc2n2cnnc12)CC(C(C)(C)C)CC3 (stereo unspecified)" readout_kind="selectivity ratio" comparison_operator=> endpoint_result=7
compound="CCCCn1c(=O)c2c3c(sc2n2cnnc12)CC(C(C)(C)C)CC3 (stereo unspecified)" readout_kind="selectivity ratio" comparison_operator=> endpoint_result=45.4
compound="CC(C)(C)C1CCc2c(sc3c2c(=O)n(-c2ccccc2)c2nncn32)C1 (stereo unspecified)" readout_kind="selectivity ratio" comparison_operator== endpoint_result=3.7
compound="CC(C)Cn1c(=O)c2c3c(sc2n2cnnc12)CC(C(C)(C)C)CC3 (stereo unspecified)" readout_kind="selectivity ratio" comparison_operator=> endpoint_result=23.8
compound="CC(C)(C)C1CCc2c(sc3c2c(=O)n(C2CC2)c2nncn32)C1 (stereo unspecified)" readout_kind="selectivity ratio" comparison_operator== endpoint_result=2.3

* * *

Assay: Cytotoxicity against human H1-HeLa cells transfected with Enterovirus A71 replicon RNAs assessed as reduction in cell viability by CellTiter-Glo luminescent cell viability assay
Type: toxicity, cell-based
READOUT KIND: CC50

compound="CCCn1c(=O)c2c3c(sc2n2cnnc12)CC(C(C)(C)C)CC3 (stereo in doubt)" endpoint_result="> 30 µM"

* * *

Molecular target: CYP1A2 (Homo sapiens, UniProt P05177)
Sequence (P05177 whole entry): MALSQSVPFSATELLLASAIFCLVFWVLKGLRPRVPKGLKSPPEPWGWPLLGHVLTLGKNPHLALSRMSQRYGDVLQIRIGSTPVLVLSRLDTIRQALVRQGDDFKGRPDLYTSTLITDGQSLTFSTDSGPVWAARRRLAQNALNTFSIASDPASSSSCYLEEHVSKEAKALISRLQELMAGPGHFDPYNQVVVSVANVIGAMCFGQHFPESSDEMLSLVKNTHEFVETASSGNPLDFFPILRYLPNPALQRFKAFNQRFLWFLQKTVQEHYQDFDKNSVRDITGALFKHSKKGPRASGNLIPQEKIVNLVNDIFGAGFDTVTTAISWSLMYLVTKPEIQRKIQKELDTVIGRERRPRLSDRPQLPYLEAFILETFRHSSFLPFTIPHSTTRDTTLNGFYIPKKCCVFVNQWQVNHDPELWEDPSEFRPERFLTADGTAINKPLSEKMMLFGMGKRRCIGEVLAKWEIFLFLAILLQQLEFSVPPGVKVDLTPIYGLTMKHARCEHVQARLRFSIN
Test: Inhibition of human CYP1A2 at 10 uM incubated for 20 mins in presence of NADPH regenerating system by luminescence assay relative to control
Type: ADME
READOUT KIND: inhibition at 20 min, 10 µM (%)

compound="CCCn1c(=O)c2c3c(sc2n2cnnc12)CC(C(C)(C)C)CC3 (stereo in doubt)" test_target="CYP1A2 (Homo sapiens, UniProt P05177)" readout_kind="inhibition at 20 min, 10 µM" endpoint_result=7.46
